# assay.notes: Plasma concentration in mouse model of pain at 60 mg/kg, po during tail immersion test
# Format: ADME, organism-based
# condition.set: in vivo
parameter.measured: concentration
Returns: string containing the number followed by the unit.

Prompt: Complete the entry with concentration for Cc1nn([C@@H]2CCN([C@H](C)c3cc(Cl)cc(Cl)c3)C2)c2cc(F)c(C(=O)NS(=O)(=O)C3CC3)cc12
Response: 49.3 µM

* * *

# assay.notes: Plasma concentration in mouse model of pain at 60 mg/kg, po during hot plate test
# Assay type: ADME, organism-based
# condition.set: in vivo
parameter.measured: concentration (µM)
Your answer is read as µM, so omit the unit and give the number.

Prompt: Complete the entry with concentration for Cc1nn([C@@H]2CCN([C@H](C)c3cc(Cl)cc(Cl)c3)C2)c2cc(F)c(C(=O)NS(=O)(=O)C3CC3)cc12
Response: 49.3
